Listing of recorded pIC50 by entry.
assaySystem: DRB1*0802 (human, UniProt P01903 26-216, limits assumed)
methodNotes: competition vs 125I probe peptide, purified MHC II
pIC50 here is simply -log10 of the concentration when that concentration is written in mol/L.

DTFRKLDRVYSNFLR 7.06
DTFRKQFRVYSNFLR 7.09

For `DTGRKLFRVYSNFLR` , what is its reported pIC50?
7.28
